Target: T1, cynomolgus monkey TG2 (cynomolgus monkey, UniProt A0A2K5VXI8 1-687)
T1 construct: Bought recombinant protein; also called cynomogulus monkey TG2; cyano TG2
T1 sequence: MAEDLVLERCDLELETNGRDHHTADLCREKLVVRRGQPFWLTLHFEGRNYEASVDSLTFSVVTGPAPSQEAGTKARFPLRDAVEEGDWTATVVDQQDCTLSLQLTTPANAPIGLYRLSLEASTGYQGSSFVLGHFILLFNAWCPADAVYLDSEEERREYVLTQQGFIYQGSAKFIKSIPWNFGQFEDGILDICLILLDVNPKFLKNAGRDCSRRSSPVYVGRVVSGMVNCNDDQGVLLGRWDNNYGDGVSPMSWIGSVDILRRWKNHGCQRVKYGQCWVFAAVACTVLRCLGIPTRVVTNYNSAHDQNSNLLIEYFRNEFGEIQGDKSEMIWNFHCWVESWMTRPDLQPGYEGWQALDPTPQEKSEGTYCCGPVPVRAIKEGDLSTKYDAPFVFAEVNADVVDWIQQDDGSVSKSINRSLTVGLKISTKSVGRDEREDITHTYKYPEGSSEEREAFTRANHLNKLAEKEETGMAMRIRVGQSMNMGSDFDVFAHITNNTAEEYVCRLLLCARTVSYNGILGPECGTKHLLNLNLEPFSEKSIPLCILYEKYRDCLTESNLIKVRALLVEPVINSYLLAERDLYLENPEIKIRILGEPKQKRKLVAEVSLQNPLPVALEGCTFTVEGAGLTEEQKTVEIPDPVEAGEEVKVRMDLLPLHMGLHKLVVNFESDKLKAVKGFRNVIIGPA
Assay: SPR (Biacore T200), antibody captured on anti-human IgG1 Fc chip, TG2 injected; calcium condition not marked in the row
reported.metric: kon (M⁻¹ s⁻¹)
Answers are plain numbers, in M⁻¹ s⁻¹.

Worked set:
binder	kon / M⁻¹ s⁻¹
hBB001AA humanised BB7 antibody (antibody, V domains shown, captured by anti-human IgG1 (Fc); also called hBB01AA) VH: EVQLLESGGGLVQPGGSLRLSCAASGFTFSSSAMSWVRQAPGKGLEWVSTISSGGRSTYYPDSVKGRFTISRDNSKNTLYLQMNSLRAEDTAVYYCAKLISPYWGQGTLVTVSS VL: DIQMTQSPSSLSASVGDRVTITCKASQDINSYLTWFQQKPGKAPKSLIYLTNRLMDGVPSRFSGSGSGTDFFLTISSLQPEDFATYYCLQYVDFPYTFGQGTKVEIK	300000
hAB005 (hAB001AJ) humanised AB1 antibody (antibody, V domains shown, captured by anti-human IgG1 (Fc); also called Heavy Chain version RHA with Light Chain version RKJ) VH: EVQLLESGGGLVQPGGSLRLSCAASGFTFSSSAMSWVRQAPGKGLEWVSTISVGGGKTYYPDSVKGRFTISRDNSKNTLYLQMNSLRAEDTAVYYCAKLISLYWGQGTLVTVSS VL: DIQMTQSPSSLSASVGDRVTITCKASQDINSYLTWFQQKPGKAPKSLIYRTNRLFDGVPSRFSGSGSGTDFFLTISSLQPEDFATYYCLQYDDFPYTFGQGTKVEIK	140000
hBB001BB humanised BB7 antibody (antibody, V domains shown, BB is read as heavy chain hBB001HB (BB7_RHB) with kappa chain hBB001KB (BB7_RKB)) VH: EVQLLESGGGLVQPGGSLRLSCAASGIIFSSSAMSWVRQAPGKGLEWVATISSGGRSTYYPDSVKGRFTVSRDSSKNTLYLQMNSLRAEDTAVYYCAKLISPYWGQGTLVTVSS VL: DIKMTQSPSSLSASVGDRVTITCKASQDINSYLTWFQQKPGKAPKTLIYLTNRLMDGVPSRFSGSGSGQEFLLTISSLQPEDFATYYCLQYVDFPYTFGQGTKVEIK	270000
hAB004 (hAB001AE) humanised AB1 antibody (antibody, V domains shown, they were captured by anti-human IgG1 (Fc); also called Heavy Chain version RHA with Light Chain version RKE) VH: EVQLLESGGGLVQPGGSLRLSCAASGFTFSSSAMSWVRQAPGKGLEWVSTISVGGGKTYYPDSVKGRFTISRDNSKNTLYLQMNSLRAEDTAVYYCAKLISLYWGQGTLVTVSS VL: EIVLTQSPSSLSASVGDRVTITCKASQDINSYLTWYQQKPGKAPKLLIYRTNRLFDGVPSRFSGSGSGTDFFFTISSLQPEDFGTYYCLQYDDFPYTFGGGTKLEIK	160000

Now, please, on to the next binder.
Reported kon for cDC001 chimeric antibody (murine DC1 variable regions) (antibody, human IgG1, V domains shown, also called Chimeric DC1) VH: EVQLVESGGGLVKPGGSLKLSCAASGFTLSTHAMSWVRQTPEKRLEWVATISSGGRSTYYPDSVKGRFTISRDNVKNTLYLQLSSLRSEDTAVYFCARLISTYWGQGTTLTVSS VL: DITMTQSPSSIYASLGERVTITCKASQDINSYLTWFQQKPGKSPKILIYLVNRLVDGVPSRFSGSGSGQDYALTISSLEYEDMGIYYCLQYDDFPYTFGGGTKLEIK was 420000
